Data origin: ChEMBL document CHEMBL2424624

experiment: Cmax in Sprague-Dawley rat at 25 mg/kg, iv; type: ADME, organism-based; parameters: dose 25 mg/kg, route intravenous; conditions: in vivo
reported_metric: Cmax (µM)
Quick reminder: number only, in µM, skip the unit.

The compound listed as CN(NC(=O)CC(=O)NN(C)C(=S)c1ccccc1)C(=S)c1ccccc1 [ELESCLOMOL] shows Cmax equal to 56.3

---

assay: Cmax in nu/nu mouse at 25 mg/kg in presence of taxol; format: ADME, organism-based; parameters: dose 25 mg/kg; details: in vivo
reported_metric: Cmax (µM)
Quick reminder: number only, in µM, skip the unit.

The molecule listed as CN(NC(=O)CC(=O)NN(C)C(=S)c1ccccc1)C(=S)c1ccccc1 shows Cmax equal to 37.8

---

assay: Half life in rat at 5 mg/kg; format: ADME, organism-based; design: dose 5 mg/kg; conditions: in vivo
reported_metric: half-life (min)
Quick reminder: number only, in min, skip the unit.

The compound listed as CN(NC(=O)CC(=O)NN(C)C(=S)c1ccccc1)C(=S)c1ccccc1 shows half-life equal to 186

---

assay: Clearance in nu/nu mouse at 25 mg/kg, iv; assay type: ADME, organism-based; parameters: dose 25 mg/kg, route intravenous; settings: in vivo
reported_metric: clearance (mL/min/kg)
Quick reminder: number only, in mL/min/kg, skip the unit.

The compound listed as CN(NC(=O)CC(=O)NN(C)C(=S)c1ccccc1)C(=S)c1ccccc1 shows clearance equal to 29

---

assay: Clearance in Sprague-Dawley rat at 25 mg/kg, iv; type: ADME, organism-based; parameters: dose 25 mg/kg, route intravenous; conditions: in vivo
reported_metric: clearance (mL/min/kg)
Quick reminder: number only, in mL/min/kg, skip the unit.

The compound listed as CN(NC(=O)CC(=O)NN(C)C(=S)c1ccccc1)C(=S)c1ccccc1 shows clearance equal to 13.2

---

experiment: AUC in nu/nu mouse at 5 mg/kg in presence of STA-4783; type: ADME, organism-based; design: dose 5 mg/kg; settings: plasma
reported_metric: AUC (µM·h)
Quick reminder: number only, in µM·h, skip the unit.

The compound listed as CC(=O)O[C@H]1C(=O)[C@@]2(C)[C@H]([C@H](OC(=O)c3ccccc3)[C@]3(O)C[C@H](OC(=O)[C@H](O)[C@@H](NC(=O)c4ccccc4)c4ccccc4)C(C)=C1C3(C)C)[C@]1(OC(C)=O)CO[C@@H]1C[C@@H]2O shows AUC equal to 2.95

---

experiment: Cmax in nu/nu mouse at 25 mg/kg, iv; type: ADME, organism-based; design: dose 25 mg/kg, route intravenous; settings: in vivo
reported_metric: Cmax (µM)
Quick reminder: number only, in µM, skip the unit.

The compound listed as CN(NC(=O)CC(=O)NN(C)C(=S)c1ccccc1)C(=S)c1ccccc1 shows Cmax equal to 85.2

---

test: AUC in rat at 25 mg/kg in presence of taxol; assay type: ADME, organism-based; parameters: dose 25 mg/kg; details: plasma
reported_metric: AUC (µM·h)
Quick reminder: number only, in µM·h, skip the unit.

The compound listed as CN(NC(=O)CC(=O)NN(C)C(=S)c1ccccc1)C(=S)c1ccccc1 [ELESCLOMOL] shows AUC equal to 36.8

---

experiment: Cmax in rat at 5 mg/kg in presence of STA-4783; format: ADME, organism-based; set-up: dose 5 mg/kg; details: in vivo
reported_metric: Cmax (µM)
Quick reminder: number only, in µM, skip the unit.

The compound listed as CC(=O)O[C@H]1C(=O)[C@@]2(C)[C@H]([C@H](OC(=O)c3ccccc3)[C@]3(O)C[C@H](OC(=O)[C@H](O)[C@@H](NC(=O)c4ccccc4)c4ccccc4)C(C)=C1C3(C)C)[C@]1(OC(C)=O)CO[C@@H]1C[C@@H]2O shows Cmax equal to 20.4

---

assay: Half life in nu/nu mouse at 5 mg/kg in presence of STA-4783; format: ADME, organism-based; parameters: dose 5 mg/kg; conditions: in vivo
reported_metric: half-life (h)
Quick reminder: number only, in h, skip the unit.

The compound listed as CC(=O)O[C@H]1C(=O)[C@@]2(C)[C@H]([C@H](OC(=O)c3ccccc3)[C@]3(O)C[C@H](OC(=O)[C@H](O)[C@@H](NC(=O)c4ccccc4)c4ccccc4)C(C)=C1C3(C)C)[C@]1(OC(C)=O)CO[C@@H]1C[C@@H]2O [PACLITAXEL] shows half-life equal to 2.26

---

assay: AUC in rat at 5 mg/kg; assay type: ADME, organism-based; set-up: dose 5 mg/kg; details: plasma
reported_metric: AUC (µM·h)
Quick reminder: number only, in µM·h, skip the unit.

The compound listed as CN(NC(=O)CC(=O)NN(C)C(=S)c1ccccc1)C(=S)c1ccccc1 [ELESCLOMOL] shows AUC equal to 10.3

---

test: Apparent terminal half life in Sprague-Dawley rat at 25 mg/kg, iv; format: ADME, organism-based; parameters: dose 25 mg/kg, route intravenous; details: in vivo, read-out: betat1/2(app) (converted)
reported_metric: half-life (h)
Quick reminder: number only, in h, skip the unit.

The compound listed as CN(NC(=O)CC(=O)NN(C)C(=S)c1ccccc1)C(=S)c1ccccc1 shows half-life equal to 1.94

---

assay: Cmax in nu/nu mouse at 5 mg/kg in presence of STA-4783; format: ADME, organism-based; set-up: dose 5 mg/kg; conditions: in vivo
reported_metric: Cmax
Include the unit right after the number.

The compound listed as CC(=O)O[C@H]1C(=O)[C@@]2(C)[C@H]([C@H](OC(=O)c3ccccc3)[C@]3(O)C[C@H](OC(=O)[C@H](O)[C@@H](NC(=O)c4ccccc4)c4ccccc4)C(C)=C1C3(C)C)[C@]1(OC(C)=O)CO[C@@H]1C[C@@H]2O [PACLITAXEL] shows Cmax equal to 10.6 µM

---

assay: Half life in rat at 25 mg/kg in presence of taxol; format: ADME, organism-based; parameters: dose 25 mg/kg; conditions: in vivo
reported_metric: half-life (h)
Quick reminder: number only, in h, skip the unit.

The compound listed as CN(NC(=O)CC(=O)NN(C)C(=S)c1ccccc1)C(=S)c1ccccc1 shows half-life equal to 1.7

---

assay: Half life in nu/nu mouse at 25 mg/kg in presence of taxol; format: ADME, organism-based; set-up: dose 25 mg/kg; settings: in vivo
reported_metric: half-life (h)
Quick reminder: number only, in h, skip the unit.

The compound listed as CN(NC(=O)CC(=O)NN(C)C(=S)c1ccccc1)C(=S)c1ccccc1 [ELESCLOMOL] shows half-life equal to 1.2

---

experiment: Volume of distribution at steady state in Sprague-Dawley rat at 25 mg/kg, iv; assay type: ADME, organism-based; design: dose 25 mg/kg, route intravenous; conditions: in vivo, read-out: Vdss
reported_metric: Vd (L/kg)
Quick reminder: number only, in L/kg, skip the unit.

The molecule listed as CN(NC(=O)CC(=O)NN(C)C(=S)c1ccccc1)C(=S)c1ccccc1 [ELESCLOMOL] shows Vd equal to 0.1

---

assay: AUC in nu/nu mouse at 25 mg/kg in presence of taxol; assay type: ADME, organism-based; set-up: dose 25 mg/kg; conditions: plasma
reported_metric: AUC (µM·h)
Quick reminder: number only, in µM·h, skip the unit.

The molecule listed as CN(NC(=O)CC(=O)NN(C)C(=S)c1ccccc1)C(=S)c1ccccc1 shows AUC equal to 11.9

---

test: AUC in nu/nu mouse at 25 mg/kg, iv; assay type: ADME, organism-based; parameters: dose 25 mg/kg, route intravenous; conditions: plasma
reported_metric: AUC (µM·h)
Quick reminder: number only, in µM·h, skip the unit.

The compound listed as CN(NC(=O)CC(=O)NN(C)C(=S)c1ccccc1)C(=S)c1ccccc1 shows AUC equal to 35.9

---

test: AUC in rat at 5 mg/kg in presence of STA-4783; format: ADME, organism-based; parameters: dose 5 mg/kg; details: plasma
reported_metric: AUC (µM·h)
Quick reminder: number only, in µM·h, skip the unit.

The molecule listed as CC(=O)O[C@H]1C(=O)[C@@]2(C)[C@H]([C@H](OC(=O)c3ccccc3)[C@]3(O)C[C@H](OC(=O)[C@H](O)[C@@H](NC(=O)c4ccccc4)c4ccccc4)C(C)=C1C3(C)C)[C@]1(OC(C)=O)CO[C@@H]1C[C@@H]2O shows AUC equal to 11.9

---

assay: AUC in Sprague-Dawley rat at 25 mg/kg, iv; type: ADME, organism-based; set-up: dose 25 mg/kg, route intravenous; details: plasma
reported_metric: AUC

The compound listed as CN(NC(=O)CC(=O)NN(C)C(=S)c1ccccc1)C(=S)c1ccccc1 shows AUC equal to 32.7 µM·h
